molecular target: human ether-à-go-go-related gene (hERG) potassium channel (human, UniProt Q12809); assay: primary screen, population patch clamp on CHO cells stably expressing hERG; higher = less effect of the substance;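 further: peak tail current of the secondary pulse compared with the same well before compound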
Sequence (Q12809 whole entry, looked up): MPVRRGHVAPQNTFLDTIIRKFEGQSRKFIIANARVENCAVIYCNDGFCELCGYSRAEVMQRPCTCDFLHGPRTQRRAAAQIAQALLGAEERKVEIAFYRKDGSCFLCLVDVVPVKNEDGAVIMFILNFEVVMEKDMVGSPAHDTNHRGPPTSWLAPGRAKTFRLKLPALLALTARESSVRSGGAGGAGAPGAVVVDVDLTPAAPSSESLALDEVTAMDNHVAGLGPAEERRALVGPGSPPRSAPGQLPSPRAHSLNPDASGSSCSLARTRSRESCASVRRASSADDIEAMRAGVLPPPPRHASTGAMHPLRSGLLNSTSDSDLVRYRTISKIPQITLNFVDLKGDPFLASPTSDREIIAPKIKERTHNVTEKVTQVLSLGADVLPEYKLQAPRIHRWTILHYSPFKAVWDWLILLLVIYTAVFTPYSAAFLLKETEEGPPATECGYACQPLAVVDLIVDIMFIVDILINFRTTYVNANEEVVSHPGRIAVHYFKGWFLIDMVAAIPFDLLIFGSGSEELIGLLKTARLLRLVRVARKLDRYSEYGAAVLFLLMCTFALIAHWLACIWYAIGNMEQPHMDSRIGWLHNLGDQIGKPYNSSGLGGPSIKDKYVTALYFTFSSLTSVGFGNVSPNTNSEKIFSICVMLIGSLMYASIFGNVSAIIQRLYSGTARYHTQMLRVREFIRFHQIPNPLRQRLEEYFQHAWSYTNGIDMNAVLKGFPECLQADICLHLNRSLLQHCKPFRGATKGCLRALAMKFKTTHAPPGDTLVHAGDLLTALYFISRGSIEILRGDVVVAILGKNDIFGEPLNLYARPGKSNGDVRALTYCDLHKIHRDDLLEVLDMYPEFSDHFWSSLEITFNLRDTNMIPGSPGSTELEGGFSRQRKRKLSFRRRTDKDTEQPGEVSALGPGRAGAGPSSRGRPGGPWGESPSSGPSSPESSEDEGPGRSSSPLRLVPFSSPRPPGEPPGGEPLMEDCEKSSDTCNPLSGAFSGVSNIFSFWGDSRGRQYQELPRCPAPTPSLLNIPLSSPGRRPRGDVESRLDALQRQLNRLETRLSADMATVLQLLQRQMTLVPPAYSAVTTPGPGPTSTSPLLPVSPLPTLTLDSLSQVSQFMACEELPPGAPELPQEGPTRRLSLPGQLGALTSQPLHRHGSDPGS
In all, about 310,000 compounds went through this assay and about 14,000 (4.5%) showed an effect of 50% or more. The effect is printed as a negative number. The full list was thinned out, with strong results kept by preference.
quantity_name: hERG current change (%, negative = inhibition) at 10uM (%)
One number for each entry, in %.

- compound: "CC1CCN(c2nc(N3CCCCC3)nc(N3CCCCC3)n2)CC1"
  assay_target: "human ether-à-go-go-related gene (hERG) potassium channel (human, UniProt Q12809)"
  quantitative_readout: 9.57
- compound: "Cc1ccc(NC(=O)C(c2ccccc2)N2CCN(CC(=O)NC3CC3)CC2)cc1 (stereo not drawn)"
  assay_target: "human ether-à-go-go-related gene (hERG) potassium channel (human, UniProt Q12809)"
  quantitative_readout: -18.1
- compound: "COc1ccc(C(OCC(O)CNC(C)c2ccccc2)c2ccc(OC)cc2)cc1 (stereo not drawn)"
  assay_target: "human ether-à-go-go-related gene (hERG) potassium channel (human, UniProt Q12809)"
  quantitative_readout: -52.4

// for each compound in input: emit hERG current change (%, negative = inhibition) at 10uM
1. Cc1ccc(-c2cccc(CN3CCN(C(C)C)C(CCO)C3)c2)o1 (stereo not drawn)
2. CCCCn1c(SCC(=O)NC(C)CC)nc2ccc(N3CCOCC3)cc2c1=O (stereo not drawn)
3. CCOC(=O)c1ccc(NC(=O)c2ccnn2C)cc1
4. COc1cccc(C(=O)NNC(=O)C2CCCO2)c1 (stereo not drawn)
5. CCCCN(CCCNC(=O)CN1C(=O)COc2ccccc21)c1ccccc1
6. COc1cc(OC)c(OC)cc1/C=C(\C#N)C(=O)NCc1cccs1
7. CC(C)Oc1ccc(C(=O)NN2C(=O)NC3(CCCCC3)C2=O)cc1
8. CC(C)N1CCC(N2CCN(Cc3ccc(-c4ccccc4Cl)o3)CC2CCO)CC1 (stereo not drawn)

1: 13.4; 2: -12.8; 3: 4.61; 4: 15.3; 5: -26; 6: 20.6; 7: 1.38; 8: -66.6

====

target: human ether-à-go-go-related gene (hERG) potassium channel (human, UniProt Q12809); assay: primary screen, population patch clamp on CHO cells stably expressing hERG; higher = less effect of the substance;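 further: peak tail current of the secondary pulse compared with the same well before compound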
The whole screen tested about 310,000 compounds, of which about 14,000 (4.5%) showed an effect of 50% or more. The effect is printed as a negative number. The sample holds strong results, similar compounds and a random draw of the others, so the mix is not that of the screen.
Decide by hERG current change (%, negative = inhibition) at 10uM: equal to or exceeding -20% means Fulfilled, less means Not fulfilled.

Please review the following examples before continuing.
- compound: "CCOc1ccc2oc(C(=O)O)c(C)c2c1"
  group_label: "Fulfilled"
- compound: "COc1ccc(-c2cc(C(=O)N/N=C(\\C)c3cccnc3)c3ccccc3n2)cc1"
  group_label: "Fulfilled"
- compound: "O=[N+]([O-])c1ccc(OCC(O)CNCCNc2nccc(C(F)(F)F)n2)cc1 (stereo not drawn)"
  group_label: "Not fulfilled"
- compound: "COc1ccc(-c2csc(N(CCCN(C)C)C(=O)c3ccc(C)cc3)n2)cc1.Cl"
  group_label: "Not fulfilled"
- compound: "CCOc1ccc(-n2nnc3c(=O)n(CC(=O)N4CCCc5ccccc54)cnc32)cc1"
  group_label: "Fulfilled"
- compound: "CC(=O)N(CCC(c1ccccc1)c1ccco1)Cc1cccs1 (stereo not drawn)"
  group_label: "Not fulfilled"

Could you verify whether the entry OC(CNCCNc1ncccc1C(F)(F)F)COc1ccc(F)cc1 (stereo not drawn) shows hERG current change (%, negative = inhibition) at 10uM of no less than -20%?
Not fulfilled

Quick one: `Cc1ccc(COc2ccsc2C(=O)NNC(N)=S)cc1`
Fulfilled

Quick one: `c1ccc(CSc2nc3ccccc3[nH]2)cc1`
Fulfilled

Quick one: OC(CNCCNc1ncccc1C(F)(F)F)Cn1ccc2ccccc21 (stereo not drawn)
Not fulfilled

Quick one: `COc1ccc(-c2csc(N(CCCN(C)C)C(=O)c3ccc(C(C)(C)C)cc3)n2)cc1.Cl`
Fulfilled

Quick one: `O=[N+]([O-])c1cccc(CSc2nc3ccccc3[nH]2)c1`
Fulfilled

Quick one: `COc1ccc(/C(C)=N/NC(=O)c2cc(-c3cccnc3)nc3ccccc23)cc1`
Fulfilled

====

For each of the compounds below, state its hERG current change (%, negative = inhibition) at 10uM.
target: human ether-à-go-go-related gene (hERG) potassium channel (human); assay: primary screen, population patch clamp on CHO cells stably expressing hERG; higher = less effect of the substance;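 further: peak tail current of the secondary pulse compared with the same well before compound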
The campaign covered roughly 310,000 compounds. About 14,000 (4.5%) showed an effect of 50% or more. Effects have a minus sign here. For the sample, strong results were picked, then their nearest neighbours and some compounds at random.
Give bare numbers, in %.

- compound: "O=C(CCN1C(=O)C2C3C=CC(C3)C2C1=O)N1CCN(c2ccccc2F)CC1 (stereo not shown)"
  quantitative_readout: -4.87
- compound: "CCOc1c2ccc(C(=O)NCc3ccco3)cc2nn1CCOC"
  quantitative_readout: -0.63
- compound: "COCC(=O)NC1CC2CCCC(C1)N2Cc1ccccc1 (stereo not shown)"
  quantitative_readout: -4.63
- compound: "O=C(NCCCN1CCN(c2cccc(Cl)c2)CC1)c1nc(-c2ccncc2)no1"
  quantitative_readout: -63.2
- compound: "COc1ccc(N2CCN(C(=O)CCN3C(=O)C4C5C=CC(C5)C4C3=O)CC2)cc1 (stereo not shown)"
  quantitative_readout: -0.214

// for each compound in input: emit hERG current change (%, negative = inhibition) at 10uM
1. O=C(Nc1ccc(Cl)c(C(F)(F)F)c1)NC1CC2CCCC(C1)N2Cc1ccccc1 (stereo not shown)
2. COC(=O)c1ccc(-c2noc(CN(Cc3ccccn3)CC3CCCO3)n2)cc1 (stereo not shown)
3. CN(C)C1=NCCN1CC1CCCCCC1

[-71, -75, -3.28]

====

For each of the compounds below, state its hERG current change (%, negative = inhibition) at 10uM.
target: human ether-à-go-go-related gene (hERG) potassium channel (human, UniProt Q12809); assay: primary screen, population patch clamp on CHO cells stably expressing hERG; higher = less effect of the substance;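 further: peak tail current of the secondary pulse compared with the same well before compound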
Hit rate of the full screen: of about 310,000 compounds, about 14,000 (4.5%) showed an effect of 50% or more. Effects have a minus sign here. This excerpt belongs to a sample that is enriched for strong results.

Guide cases for hERG current change (%, negative = inhibition) at 10uM, answers given:
- compound: "CC(=O)Nc1ccc(N2CCN(c3ccc(C(F)(F)F)cn3)CC2)nc1"
  result: "-3.49%"
- compound: "Cc1c(C(=O)OC2CCC(C)CC2)[nH]c2c1C(=O)CCC2 (stereo not shown)"
  result: "-3.25%"
- compound: "Cc1cccc(-n2nc(C(=O)c3ccco3)cc(-c3nc4ccccc4[nH]3)c2=N)c1"
  result: "-65.7%"
- compound: "Cc1ccccc1C(=O)Nc1ccc(N2CCN(C)CC2)nc1"
  result: "-1.6%"
- compound: "Cc1ncc([N+](=O)[O-])n1CC(=O)Nc1ccc(F)cc1F"
  result: "13.3%"

// for each compound in input: emit hERG current change (%, negative = inhibition) at 10uM
1. Cc1ccc(C(=O)Nc2ccc3c(c2)CCC3)cc1
2. O=S(=O)(Cc1noc(-c2ccc(Cl)cc2)n1)Cc1ccco1
3. O=C(CN(Cc1ccc(F)cc1)C(=O)CCC(=O)Nc1nccs1)NCc1ccc(F)cc1

["14.7%", "-4.77%", "-50.5%"]

// for each compound in input: emit hERG current change (%, negative = inhibition) at 10uM
1. COc1ccc(CN(CC(=O)NCc2ccc(F)cc2)C(=O)CCC(=O)Nc2ccccn2)cc1
2. O=C(CSc1n[nH]c(=O)n1Cc1ccco1)c1ccc2c(c1)OCCO2
3. COc1cc2c(cc1NC(=O)c1cccnc1)CCCC2
4. CCCNC(=O)c1[nH]c(C)c(C(C)=O)c1C
5. CCOc1ccc2[nH]c3c(NCCC(C)C)ncnc3c2c1

1. -28.2%
2. 15%
3. 14.2%
4. 19.3%
5. 7.2%

// for each compound in input: emit hERG current change (%, negative = inhibition) at 10uM
1. O=C(Nc1cccc(-c2nc3ccccc3[nH]2)c1)c1ccco1
2. CCN(CC)CCNc1ncnc2c1[nH]c1ccc(OC)cc12
3. CN1CCN(c2ccc(NC(=O)c3ccc(Cl)cc3)cn2)CC1
4. O=C(NCCCN1CCCC1=O)NC1CCCCC1
5. CCOc1ccc2[nH]c3c(NCCN(C)C)ncnc3c2c1
6. COCC(=O)N1CCc2ccc(NC(=O)c3ccc(C(F)(F)F)cc3)cc2C1
7. Cc1sc2c(c1C)C(c1cccs1)=NCC(=O)N2CC(=O)NCc1cccs1
8. O=C(CN(Cc1ccc(F)cc1)C(=O)CCC(=O)Nc1ccccn1)NCCc1ccccc1

["-16.9%", "-63.4%", "-53.1%", "10.9%", "-19%", "-38.3%", "-56.2%", "-15.7%"]

// for each compound in input: emit hERG current change (%, negative = inhibition) at 10uM
1. COc1ccc(CN(CC(=O)NCc2ccccc2)C(=O)CCC(=O)Nc2ccccn2)cc1
2. Cn1cc(CN2CCCC(CNS(=O)(=O)c3cccc4cccnc34)C2)cn1 (stereo not shown)
3. O=C(Nc1ccc(N2CCOCC2)nc1)c1ccc(C(F)(F)F)cc1

1: -21.1%; 2: 5.77%; 3: 16.6%

All values here come from paper PMC4336329.
